Measured Target: Prostaglandin G/H synthase 2 (Homo sapiens)
Sequence (P35354 whole entry): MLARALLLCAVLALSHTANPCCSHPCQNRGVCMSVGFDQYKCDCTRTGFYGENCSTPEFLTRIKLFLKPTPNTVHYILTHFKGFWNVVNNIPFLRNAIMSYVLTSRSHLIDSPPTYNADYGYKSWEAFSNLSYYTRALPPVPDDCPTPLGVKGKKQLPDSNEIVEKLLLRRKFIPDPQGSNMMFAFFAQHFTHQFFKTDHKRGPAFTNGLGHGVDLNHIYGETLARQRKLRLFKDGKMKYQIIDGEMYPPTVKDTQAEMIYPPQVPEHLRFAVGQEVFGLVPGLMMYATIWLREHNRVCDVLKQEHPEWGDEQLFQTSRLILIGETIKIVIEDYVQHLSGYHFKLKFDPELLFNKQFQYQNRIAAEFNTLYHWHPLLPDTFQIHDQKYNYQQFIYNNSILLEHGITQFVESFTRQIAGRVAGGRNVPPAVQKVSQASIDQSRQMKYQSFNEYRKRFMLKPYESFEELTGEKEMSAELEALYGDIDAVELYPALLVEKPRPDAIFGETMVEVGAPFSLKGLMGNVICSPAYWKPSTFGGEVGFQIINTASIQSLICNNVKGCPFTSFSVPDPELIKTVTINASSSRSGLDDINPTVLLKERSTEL
Experimental Protocol: Inhibition of COX2 in human HNSCC1483 cells using [1-14C]-arachidonic acid as substrate assessed as inhibition of substrate oxygenation preincubated for 30 mins followed by substrate addition measured after 20 mins by thin layer chromatographic analysis
Format: cell-based
Measured Metric: pIC50
Field pIC50 (float): negative decimal logarithm of the concentration in molar.

// fetch Prostaglandin G/H synthase 2 (Homo sapiens) pIC50 for COc1ccc2c(c1)c(CC(=O)O)c(C(F)(F)F)n2C(=O)c1ccc(Cl)cc1
6.82

---

Measured Target: Prostaglandin G/H synthase 2 (Homo sapiens)
Experimental Protocol: Inhibition of wild type human COX2 expressed in insect cells using [1-14C]-arachidonic acid as substrate incubated for 17 mins at 25 degC followed by 3 mins at 37 degC prior to substrate addition measured after 30 secs by thin layer chromatographic analysis
Measured Metric: IC50 (nM)
Number in nM, nothing else.

// fetch Prostaglandin G/H synthase 2 (Homo sapiens) IC50 for COc1ccc2c(c1)c(CC(=O)O)c(C(F)(F)F)n2C(=O)c1ccc(Cl)cc1
388

---

Measured Target: Prostaglandin G/H synthase 1 (Ovis aries, UniProt P05979)
Sequence (P05979 whole entry): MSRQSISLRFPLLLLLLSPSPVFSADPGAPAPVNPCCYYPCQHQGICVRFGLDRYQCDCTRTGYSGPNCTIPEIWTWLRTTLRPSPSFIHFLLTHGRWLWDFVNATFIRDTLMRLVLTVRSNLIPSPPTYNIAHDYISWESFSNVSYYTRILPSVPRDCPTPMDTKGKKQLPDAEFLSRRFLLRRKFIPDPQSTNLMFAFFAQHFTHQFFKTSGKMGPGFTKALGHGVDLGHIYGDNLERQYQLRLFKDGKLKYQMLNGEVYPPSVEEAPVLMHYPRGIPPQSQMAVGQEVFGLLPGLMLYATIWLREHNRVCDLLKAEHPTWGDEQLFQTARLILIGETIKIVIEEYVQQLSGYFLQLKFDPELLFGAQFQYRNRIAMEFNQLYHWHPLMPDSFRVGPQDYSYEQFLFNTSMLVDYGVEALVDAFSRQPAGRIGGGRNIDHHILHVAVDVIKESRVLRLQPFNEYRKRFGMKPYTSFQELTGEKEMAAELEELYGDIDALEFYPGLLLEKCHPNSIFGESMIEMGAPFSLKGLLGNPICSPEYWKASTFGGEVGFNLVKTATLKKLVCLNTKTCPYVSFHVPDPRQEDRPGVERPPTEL
pIC50: −log10 of the molar value.
Measured Metric: pIC50

// fetch Prostaglandin G/H synthase 1 (Ovis aries, UniProt P05979) pIC50 for COc1ccc2c(c1)c(CC(=O)O)c(C(F)(F)F)n2C(=O)c1ccc(Cl)cc1
< 5.40
